- Measured on: Peroxisome proliferator-activated receptor alpha (Homo sapiens) (UniProt Q07869)
- Sequence (whole entry): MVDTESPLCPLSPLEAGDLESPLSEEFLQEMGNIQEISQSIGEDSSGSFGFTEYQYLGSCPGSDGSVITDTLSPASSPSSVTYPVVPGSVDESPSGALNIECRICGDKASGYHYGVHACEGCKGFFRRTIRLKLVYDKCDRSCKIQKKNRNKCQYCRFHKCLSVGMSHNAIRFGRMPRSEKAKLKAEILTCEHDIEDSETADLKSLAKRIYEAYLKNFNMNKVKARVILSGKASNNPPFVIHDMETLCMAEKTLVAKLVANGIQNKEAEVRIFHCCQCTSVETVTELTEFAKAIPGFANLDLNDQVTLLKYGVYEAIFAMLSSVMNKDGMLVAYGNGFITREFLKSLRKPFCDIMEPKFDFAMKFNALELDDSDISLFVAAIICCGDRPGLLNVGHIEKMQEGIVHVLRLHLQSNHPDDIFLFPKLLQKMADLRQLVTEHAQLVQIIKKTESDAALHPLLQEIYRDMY
- Test protocol: Binding affinity to PPARalpha (unknown origin) at 10 uM by TR-FRET based LanthaScreen competitive binding assay relative to control
Attribute measured: Activity (%)

>>> df
                         compound_structure  measurement
0  O[C@H]1[C@@H](O)CO[C@@H]1Cn1cnc2c(NCc3cccc(I)c3)nc(Cl)nc21         17.2

[a] O[C@H]1[C@@H](O)CO[C@@H]1Cn1cnc2c(NCc3cccc(F)c3)ncnc21
[b] O[C@H]1[C@@H](O)CO[C@@H]1Cn1cnc2c(NCc3cccc(Cl)c3)ncnc21
// which entry reports the smaller Activity, a or b ? Respond with the label that goes with your answer.
b

[A] O[C@H]1[C@@H](O)CO[C@@H]1Cn1cnc2c(NCc3cccc(Cl)c3)nc(Cl)nc21
[B] O[C@H]1[C@@H](O)CO[C@@H]1Cn1cnc2c(NCc3cccc(Br)c3)nc(Cl)nc21
[C] O[C@@H]1[C@H](O)CO[C@H]1Cn1cnc2c(NCc3cccc(I)c3)nc(Cl)nc21
[D] O[C@H]1[C@@H](O)CO[C@@H]1Cn1cnc2c(NCc3cccc(I)c3)ncnc21
Kindly order the items shown according to Activity, from the highest value down. # output: labels, in the requested order
A, D, B, C

[P] O[C@H]1[C@@H](O)CO[C@@H]1Cn1cnc2c(NCc3cccc(F)c3)nc(Cl)nc21
[Q] O[C@H]1[C@@H](O)CO[C@@H]1Cn1cnc2c(NCc3cccc(Br)c3)ncnc21
// which entry reports the smaller Activity, P or Q ? Respond with the label that goes with your answer.
Q

----------
- Measured on: Peroxisome proliferator-activated receptor gamma (Homo sapiens)
- Test protocol: Binding affinity to PPARgamma (unknown origin) at 10 uM by TR-FRET based LanthaScreen competitive binding assay relative to control
Attribute measured: Activity (%)

In [3]: df
Out[3]:
                         compound_structure  attribute_measured  unit_string  measurement
0  O[C@H]1[C@@H](O)CO[C@@H]1Cn1cnc2c(NCc3cccc(I)c3)ncnc21            Activity            %          3.9
1  O[C@H]1[C@@H](O)CO[C@@H]1Cn1cnc2c(NCc3cccc(Br)c3)ncnc21            Activity            %         12.5
2  O[C@H]1[C@@H](O)CO[C@@H]1Cn1cnc2c(NCc3cccc(F)c3)nc(Cl)nc21            Activity            %          6.3
3  O[C@H]1[C@@H](O)CO[C@@H]1Cn1cnc2c(NCc3cccc(Br)c3)nc(Cl)nc21            Activity            %         25.5
4  O[C@H]1[C@@H](O)CO[C@@H]1Cn1cnc2c(NCc3cccc(Cl)c3)nc(Cl)nc21            Activity            %         10.7

[a] O[C@H]1[C@@H](O)CO[C@@H]1Cn1cnc2c(NCc3cccc(Cl)c3)ncnc21
[b] O[C@H]1[C@@H](O)CO[C@@H]1Cn1cnc2c(NCc3cccc(F)c3)ncnc21
Two entries are listed, a and b . Which one carries the higher Activity? Respond with the label that goes with your answer.
b
(b: 11.5%, a: 5.9%)
